// data source = PubChem BioAssay AID430

Experiment: cytotoxicity in HPDE-C7 cells, cell-based, fluorescence, HTS (AID 430);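 further: cells exposed to compound for 48 hours before viability readout; 0% = vehicle and 100% = reference cytotoxic drug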
Conditions: HPDE-C7 pancreatic duct cells viability, at 10 µM
Among all 63,000 compounds or so, about 1,100 (1.7%) were called active. No stated cut-off is given here; in the data, active means cytotoxicity above about 50%; inactive means the rest. This is one part of a sample in which actives are shown more often than they occur. Measured potencies and affinities stand elsewhere.
API: response.call in active, inactive

# SMILES RECORD, CLASSIFICATION
records = [
    ("O=S(=O)(NCCOc1ccc(F)cc1)c1ccc2c(c1)OCCO2", "inactive"),
    ("CCSc1nnc(NC(=O)NC(CC)(C(F)(F)F)C(F)(F)F)s1", "inactive"),
    ("O=C(c1cccc(COc2ccc(Cl)cc2Cl)c1)N1CCN(c2ccccn2)CC1", "active"),
    ("FC(F)(F)c1cccnc1N1CCN(c2ncnc3nc[nH]c23)CC1", "inactive"),
]

Lab note: next compound to report on.
Which outcome did this test record for the compound CC1(C)Cc2cccc(OCC(=O)N3CCN(S(=O)(=O)c4ccccc4)CC3)c2O1 ?
inactive

* * *

Test: cytotoxicity in HPDE-C7 cells, cell-based, fluorescence, HTS (AID 430);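 further: cells exposed to compound for 48 hours before viability readout; 0% = vehicle and 100% = reference cytotoxic drug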
Settings: HPDE-C7 pancreatic duct cells viability, at 10 µM, stronger effect = higher value
The campaign covered roughly 63,000 compounds. About 1,100 (1.7%) were called active. This is one part of a sample in which actives are shown more often than they occur. Results with a measured potency or affinity are listed apart.
Reported cytotoxicity is given for each of the following molecules.
Please reply with the bare figure in % and do not write the unit itself.

Some solved entries appear below for comparison.
# MOLECULE, UNITS OF MEASURE, cytotoxicity
rows = [
    ("CC1CCCN(c2nc3ccccc3nc2C(C#N)S(=O)(=O)c2ccccc2)C1 (stereo not drawn)", "%", 52.3),
    ("C/C=C(/C(=C/C)c1ccc(O)cc1)c1ccc(O)cc1", "%", 106),
    ("O=C(Cn1cnnn1)Nc1ccccc1Cc1ccccc1", "%", -2.5),
    ("Cc1ccc(S(=O)(=O)C(C#N)c2nc3ccccc3nc2N2CCC(C)CC2)cc1 (stereo not drawn)", "%", 5.7),
    ("c1ccc(CN2CCN(c3ncnc4nc[nH]c34)CC2)cc1", "%", 8.4),
]

If you can, please state the reported cytotoxicity value of Cc1cc(=O)[nH]c(SCC2COC3(CCCCC3)O2)n1 (stereo not drawn) .
-12.2

If you can, please state the reported cytotoxicity value of Cc1ccc(-c2nnn(CCC(=O)N3CCCCC3C)n2)cc1 (stereo not drawn) .
-5.2

If you can, please state the reported cytotoxicity value of CCOc1ccc(OC(=O)c2cccnc2)cc1 .
4.1

If you can, please state the reported cytotoxicity value of CC(C)Cc1nc(N2CCOCC2)c(C#N)c2c1CCC2 .
74.1

If you can, please state the reported cytotoxicity value of CS(=O)(=O)N1CCc2cc(S(=O)(=O)N3CCN(Cc4ccc5c(c4)OCO5)CC3)ccc21 .
6.1

* * *

Experiment: cytotoxicity in HPDE-C7 cells, cell-based, fluorescence, HTS (AID 430);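 further: cells exposed to compound for 48 hours before viability readout; 0% = vehicle and 100% = reference cytotoxic drug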
Settings: HPDE-C7 pancreatic duct cells viability, at 10 µM, stronger effect = higher value
Screen size: about 63,000 compounds; about 1,100 (1.7%) were called active. The list comes from a sample in which actives are over-represented; it also holds close analogues and randomly drawn compounds. Potency and affinity values are given separately.
MEASUREMENT KIND: cytotoxicity (%)
Please reply with the bare figure in % and do not write the unit itself.

Some solved entries appear below for comparison.
# COMPOUND, MEASUREMENT KIND, UNITS OF MEASURE, MEASURED RESULT
data = [
    ("Cn1c(CNc2ccccc2)nc2ccccc21", "cytotoxicity", "%", -11.4),
    ("CC1=CCC(C(C)(C)NC(=O)c2ccccc2)C/C1=N\\O (stereo not drawn)", "cytotoxicity", "%", -14.7),
]

Here is the next item to consider.
If you can, please state the reported cytotoxicity value of COc1ccc(C(=O)CSc2nnc(-c3ccc(S(=O)(=O)N4CCOCC4)cc3)o2)cc1 .
56.1
